Kindly supply the reported growth values for the records listed here.
test system: MCF7 breast; assay: NCI-60 one-dose screen, 48 h (100 = growth as untreated, 0 = no growth, -100 = all killed); details: 10 µM unless noted
Compounds without any hit were thinned out: in the full panel of roughly 83,000, 20% have a hit.
Numbers only, in %.

Worked set:
>>> observed_measurement("COc1cc2c(cc1OCCCCCn1c(-c3ccc(OCc4ccccc4)cc3)nc3cc(N4CCOCC4)ccc31)N=C[C@@H]1CCCN1C2=O")
-3.99
>>> observed_measurement("CCC1(c2ccccc2)Oc2ccccc2-n2c(C#N)c3ccccc3c2C1=O (centres undefined)")
85.1
>>> observed_measurement("COc1ccc(Nc2ccnc(NCCCNc3ccnc4cc(Cl)ccc34)n2)cc1")
-2.74
>>> observed_measurement("CCN(CC)CCNc1ccc(Cl)cc1Cl")
107
>>> observed_measurement("COc1ccc(C2=NNC(c3cc(Cc4ccc(O)c(C5CC(c6ccc(OC)cc6)=NN5)c4)ccc3O)C2)cc1 (centres undefined)")
26.1

Look at each compound and report its growth.
1. S=C(c1ccccc1)N1CCN(c2cccc(Cl)c2)CC1
2. O=C1NC(=O)/C(=C\c2ccccc2)C2=C1CCCC2
3. NC(=O)N/N=C/c1ccc(Br)o1
4. O=c1ccn(C2OC(CO)C(O)C2F)c(=O)[nH]1 (centres undefined)
5. c1cnc2ccc3ncccc3c2c1

109
-49
95.4
104
92

Each of the following entries comes with a recorded value; kindly state growth for each.
1. COc1ccc(/C=C2\COc3ccc(O)c(O)c3C2=O)cc1OC
2. O=C1Cc2cc(CCn3cncn3)c(Cl)cc2N1
3. Cc1c(C(N)=O)sc2ncn(Cc3ccccc3)c(=O)c12
4. COc1cc(C2C=C(c3ccc(C)cc3)Nc3nc(SC)[nH]c(=O)c32)ccc1Oc1ccnc2cc(Cl)ccc12 (centres undefined)

13
29
99.8
56.9

Give growth for all compounds that follow.
1. CN(C)c1nc(N)nc(Cn2c(-c3nonc3N)nc3ccccc32)n1
2. Cc1nnc(Nc2ccc(NC(=O)Nc3ccc(Cl)cc3)cc2)c2ccccc12
3. CC(=O)NC1(C(=O)O)CCCC1

66.5
24.9
97.8

Provide reported growth for each item, in the same order as listed.
1. Cc1ccccc1NC(=O)c1cc2ccccc2cc1O
2. COc1ccc2nc3cc(Cl)ccc3c(N3CCN(c4ccnc(Nc5ccc(F)cc5)n4)CC3)c2c1

80.5
48.8
